Exercise: state measured koff for each of the binders provided.
- study-target: T1, recombinant fibronectin domain ED-B (His)6 (human, UniProt P02751 1266-1356)
- T1 construct: domain: ED-B; Produced by standard procedures; immobilised on ELISA plates or on the BIAcore chip; also called recombinant ED-B; human ED-B
- procedure-summary: SPR (BIAcore), ED-B immobilised on chip, Fab in flow
Answers are plain numbers, in s⁻¹.

Examples with answers:
Value of koff reported for the binder MOR03064 (Fab, V domains shown, Fab, L-CDR3 derivative of MOR02715) VH: QVQLVESGGGLVQPGGSLRLSCAASGFTFSSYGMHWVRQAPGKGLEWVSVISSSGSYIYYADSVKGRFTISRDNSKNTLYLQMNSLRAEDTAVYYCARNKVGFDVWGQGTLVTVSS VL: DIALTQPASVSGSPGQSITISCTGTSSDGGGYNTVSWYQQHPGKAPKLMIYYVHKRPSGVSNRFSGSKSGNTASLTISGLQAEDEADYYCQSWDLLAPSVVFGGGTKLTVLG is 0.014

Value of koff reported for the binder MOR03069 (Fab, V domains shown, Fab, L-CDR3 derivative of MOR02619) VH: QVQLQESGPGLVKPGETLSLTCTVSGGSISSYYWSWIRQAPGKGLEWIGIGHWGSTQYNPSLKGRVTISVDTSKNQFSLKLSSVTAEDTAVYYCARFFDVWGQGTLVTVSS VL: DIVLTQPPSVSGAPGQRVTISCSGSSSNIGSNTVRWYQQLPGTAPKLLIYSNNKRPSGVPDRFSGSKSGTSASLAITGLQSEDEADYYCWTGMSYHFVFGGGTKLTVLG is 0.0041

Value of koff reported for the binder MOR03071 (Fab, V domains shown, Fab, L-CDR3 derivative of MOR02619) VH: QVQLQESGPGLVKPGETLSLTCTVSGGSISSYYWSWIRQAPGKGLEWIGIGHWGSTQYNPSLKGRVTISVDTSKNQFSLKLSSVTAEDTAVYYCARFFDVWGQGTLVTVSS VL: DIVLTQPPSVSGAPGQRVTISCSGSSSNIGSNTVRWYQQLPGTAPKLLIYSNNKRPSGVPDRFSGSKSGTSASLAITGLQSEDEADYYCLAYIQSKGHVFGGGTKLTVLG is 0.0057

Value of koff reported for the binder MOR03075 (Fab, V domains shown, Fab, L-CDR3 derivative of MOR02619) VH: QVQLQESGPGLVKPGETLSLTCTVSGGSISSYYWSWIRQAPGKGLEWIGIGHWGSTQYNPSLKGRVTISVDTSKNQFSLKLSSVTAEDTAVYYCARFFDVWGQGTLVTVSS VL: DIVLTQPPSVSGAPGQRVTISCSGSSSNIGSNTVRWYQQLPGTAPKLLIYSNNKRPSGVPDRFSGSKSGTSASLAITGLQSEDEADYYCQSWDPRSFTVFGGGTKLTVLG is 0.0026

Value of koff reported for the binder MOR03066 (Fab, V domains shown, Fab, L-CDR3 derivative of MOR02619) VH: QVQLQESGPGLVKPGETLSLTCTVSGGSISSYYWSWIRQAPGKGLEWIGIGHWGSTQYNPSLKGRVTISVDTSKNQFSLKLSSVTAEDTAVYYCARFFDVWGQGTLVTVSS VL: DIVLTQPPSVSGAPGQRVTISCSGSSSNIGSNTVRWYQQLPGTAPKLLIYSNNKRPSGVPDRFSGSKSGTSASLAITGLQSEDEADYYCSSYDTQVTRVFGGGTKLTVLG is 0.0047

Value of koff reported for the binder MOR03062 (Fab, V domains shown, Fab, L-CDR3 derivative of MOR02715) VH: QVQLVESGGGLVQPGGSLRLSCAASGFTFSSYGMHWVRQAPGKGLEWVSVISSSGSYIYYADSVKGRFTISRDNSKNTLYLQMNSLRAEDTAVYYCARNKVGFDVWGQGTLVTVSS VL: DIALTQPASVSGSPGQSITISCTGTSSDGGGYNTVSWYQQHPGKAPKLMIYYVHKRPSGVSNRFSGSKSGNTASLTISGLQAEDEADYYCQSWDLSVHQVVFGGGTKLTVLG is 0.011

Dear colleague, could you send me koff for each of the items below? Thanks.
1. MOR02715 (Fab, V domains shown, HuCAL GOLD Fab, VH3/L2) VH: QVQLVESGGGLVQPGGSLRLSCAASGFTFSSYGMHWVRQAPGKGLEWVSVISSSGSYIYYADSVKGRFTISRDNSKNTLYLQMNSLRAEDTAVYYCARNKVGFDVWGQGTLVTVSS VL: DIALTQPASVSGSPGQSITISCTGTSSDGGGYNTVSWYQQHPGKAPKLMIYYVHKRPSGVSNRFSGSKSGNTASLTISGLQAEDEADYYCQAWDNQGMKYVFGGGTKLTVLG
2. MOR02619 (Fab, V domains shown, HuCAL GOLD Fab, VH4/L1) VH: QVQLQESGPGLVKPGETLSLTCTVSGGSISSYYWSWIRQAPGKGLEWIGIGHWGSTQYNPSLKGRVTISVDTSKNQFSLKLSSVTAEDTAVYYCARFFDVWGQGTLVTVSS VL: DIVLTQPPSVSGAPGQRVTISCSGSSSNIGSNTVRWYQQLPGTAPKLLIYSNNKRPSGVPDRFSGSKSGTSASLAITGLQSEDEADYYCQSWDGASTGVFGGGTKLTVLG
3. MOR03055 (Fab, V domains shown, Fab, L-CDR3 derivative of MOR02619) VH: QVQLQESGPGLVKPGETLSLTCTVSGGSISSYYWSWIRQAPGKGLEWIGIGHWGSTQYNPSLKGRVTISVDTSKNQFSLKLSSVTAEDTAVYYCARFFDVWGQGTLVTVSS VL: DIVLTQPPSVSGAPGQRVTISCSGSSSNIGSNTVRWYQQLPGTAPKLLIYSNNKRPSGVPDRFSGSKSGTSASLAITGLQSEDEADYYCQAWTRAHRYPVFGGGTKLTVLG

0.047
0.012
0.0051

Values compiled from patent US20060115428A1.
